outcomeMeasure: melting point

// worked examples, melting point included
INSERT INTO assay_data (compound, outcomemeasure, result) VALUES
  ('Nc1ncn(C[C@H](O)COC(c2ccccc2)(c2ccccc2)c2ccccc2)c(=O)n1', 'melting point', '130 to 132 °C'),
  ('CCOC(=O)C(=O)Nc1cc(NC=O)ccc1O', 'melting point', '> 300 °C'),
  ('CC1(C)CC(=O)Oc2cc(O)ccc21', 'melting point', '84 to 85 °C'),
  ('CCOC(=O)c1cn(CC)c2c(F)c(C(=O)C=CN(C)C)c(F)cc2c1=O', 'melting point', '175 to 177 °C'),
  ('COC(=O)c1c(C)nc2c(c(-c3ccccc3)nn2C)c1-c1ccc(F)cc1', 'melting point', '142 to 144 °C'),
  ('CCc1cnn(CC(=O)O)c1OCCCc1cn(-c2ccc(C(F)(F)F)cn2)nc1C(CC)CC', 'melting point', '124 to 125 °C');

We now examine a further compound.
Give a short answer stating reported melting point for Cc1cc(C(=N)NO)ccc1-c1ccc(-c2nc3cc(C(=N)NO)ccc3[nH]2)cc1 .
300 to 302 °C

Entry source: a melting point compilation (Tetko et al.; mined from patent text by program, amines drawn as free bases though some values may be those of a salt)
